- measurement.target: Tau
- protocol.summary: rat primary cortical neurons, FLIPR, 25 uM ASO
Bases are written 5' to 3'; sugars and linkages follow in the same order, as letters with counts (s phosphorothioate, o phosphodiester; PS: all linkages phosphorothioate). The collection does not say whether C is 5-methylated. l = locked nucleic acid (LNA); d = 2'-deoxy (DNA)
# Lookup of reported calcium oscillation score keyed by entry

CACCACTTTAATCTGCCT (sugars l2 d14 l2, PS) ... 41.1 % of control
TATTTCCAAATTCACTTTTA (sugars llddlldddddddddldlll, PS) ... 120 % of control
CTTTATTTCCAAATTCACT (sugars l4 d10 l5, PS) ... 108 % of control
AGCAATAGCAAACAGG (sugars l3 d10 l3, PS) ... 48.8 % of control
CCTAATGAGCCACACT (sugars l3 d10 l3, PS) ... 92.6 % of control
CAGGTTAAGTGATTAACCAA (sugars l3 d14 l3, PS) ... 17.4 % of control

Asked: Look at this sequence and give its reported calcium oscillation score. CTAATTCCCAAATTCCTCA (sugars l2 d14 l3, PS)
Given back: 62.1 % of control

Asked: Look at this sequence and give its reported calcium oscillation score. TTCTCGCGGAAGGTCA (sugars l3 d10 l3, PS)
Given back: 0 % of control

Asked: Look at this sequence and give its reported calcium oscillation score. ATTTCCAAATTCACTTTTAC (sugars llldlddddddddddldlll, PS)
Given back: 135 % of control
